Please respond with reported Plant response rating, Oilseed Rape for every item in the list.
# Tested on: oilseed rape
# Protocol Summary: Test C pre-/postemergence herbicide test
# Assay type: in vivo, Brassica napus
# Test Settings: Postemergence; 250 g ai/ha; scale 0 to 100 (0 no effect, 100 complete control)
Write no unit; give the number alone.

## Input Entry O=C1NCC(c2ccc(C(F)(F)F)cc2)C1C(=O)Nc1cccc(F)c1F (stereo not shown) [Compound 80] , system oilseed rape: what Plant response rating, Oilseed Rape was measured?
## Output 60

## Input Entry O=C1NCC(c2cccc(OC(F)F)c2)C1C(=O)Nc1cccc(F)c1F (stereo not shown) , system oilseed rape: what Plant response rating, Oilseed Rape was measured?
## Output 5

## Input Entry O=C1NCC(c2ccc(F)c(F)c2)C1C(=O)Nc1cccc(F)c1F (racemic) , system oilseed rape: what Plant response rating, Oilseed Rape was measured?
## Output 35

## Input Entry O=C1NCC(c2ccc(C(F)(F)F)cc2)C1C(=O)Nc1cccc(F)c1F (racemic) [Compound 202] , system oilseed rape: what Plant response rating, Oilseed Rape was measured?
## Output 50
